Experimental Parameters: 298.15 K; 101.33 kPa; Liquid; Pycnometric method
Measured mass density accompanies every entry in the list below.
Hi! Could you send only the number? It should be in kg/m3, unit omitted.

Here is how some compounds turned out for mass density.
Compound	Unit Descriptor	Reported Value
CCC(C)O (stereo unspecified) [butan-2-ol]	kg/m3	802.4
CCCCOC(C)=O [butyl ethanoate]	kg/m3	875.8
CCOC(C)=O [ethyl acetate]	kg/m3	894.4
CC(C)O [propan-2-ol]	kg/m3	781.2
CC#N [acetonitrile]	kg/m3	777

Input line: Find the measured mass density of CC(C)=O [acetone] and report it.
Output line: 785.1
